experiment: Parallel artificial membrane permeability assay (PAMPA); assay type: in vitro ADME; conditions: PBS, room temperature
# Papp at 5 h, 200 µM per entry

INSERT INTO measurements (compound, result_value) VALUES
  ('CCC(C)CN1CC2N(Cc3ccc(OC(F)F)cc3)CCC(=O)N2C(CC(C)C)C1=O (stereo not drawn)', '< 2 ×10⁻⁶ cm/s'),
  ('CC1C(=O)N(CCC2CCCC2)CC2N(Cc3ccc(C(F)(F)F)c(Cl)c3)CCC(=O)N12 (stereo not drawn)', '< 2 ×10⁻⁶ cm/s');

Could you now look at the following compound, please?
Could you tell me which Papp at 5 h, 200 µM is on file for CC1C(=O)N(CCC2CCC2)CC2N(Cc3ccc(C(F)(F)F)c(Cl)c3)CCC(=O)N12 (stereo not drawn) ? < 2 ×10⁻⁶ cm/s

====

# reported solubility at 2 h; entries follow
assay: Turbidimetric solubility assay; assay type: physicochemical; conditions: aqueous buffer, kinetic from dmso stock, PBS, 37° C., absorbance 620 nm

Data request, read-out solubility at 2 h, for CC1C(=O)N(CCC2CCC2)CC2N(Cc3ccc(F)cc3)CCC(=O)N12 (centres unmarked) > 300 µM

# input molecule: CCC(C)CN1CC2N(C(=O)c3ccc(C(F)(F)F)c(Cl)c3)CCC(=O)N2C(C)C1=O (centres unmarked) ; wanted: its solubility at 2 h > 300 µM

Entry under review: CCCCN1CC2N(C(=O)c3ccc(OC(F)F)cc3)CCC(=O)N2C(C)C1=O (centres unmarked) . Reported solubility at 2 h? > 300 µM

Find the recorded solubility at 2 h belonging to CCC(C)CN1CC2N(Cc3c[nH]c4ccccc34)CCC(=O)N2C(C)C1=O (centres unmarked) and report it. > 100 µM

Form field: reported solubility at 2 h of CC(C)N1CC2N(C(=O)c3ccc(C(F)(F)F)cc3)CCC(=O)N2C(C)C1=O (centres unmarked) > 300 µM

Would you mind telling me what solubility at 2 h value was observed for CC1C(=O)N(CCC2CCC2)CC2N(Cc3ccc(C(F)(F)F)c(Cl)c3)CCC(=O)N12 (centres unmarked) ? > 100 µM

Fill blank: measured solubility at 2 h of the molecule CC1C(=O)N(CCN)CC2N(C(=O)c3ccc(OC(F)F)cc3)CCC(=O)N12 (centres unmarked) is ____. > 300 µM

Item under review: C=CCCN1CC2N(C(=O)c3ccc(OC(F)F)cc3)CCC(=O)N2C(C)C1=O (centres unmarked) . Reported solubility at 2 h? > 300 µM

====

Let's look at some molecules and their measured solubility at 2 h.
experiment: Turbidimetric solubility assay; format: physicochemical; conditions: aqueous buffer, kinetic from dmso stock, PBS, 37° C., absorbance 620 nm

These solved cases illustrate the format of a correct answer.
INSERT INTO measurements (molecule, quantity_measured, result_value) VALUES
  ('CCC(C)CN1CC2N(Cc3ccc(C(F)(F)F)cc3)CCC(=O)N2C(CF)C1=O (centres unmarked)', 'solubility at 2 h', '> 100 µM'),
  ('CC1C(=O)N(CCC2CCCC2)CC2N(C(=O)c3ccc(C(F)(F)F)cc3)CCC(=O)N12 (centres unmarked)', 'solubility at 2 h', '> 300 µM'),
  ('CC1C(=O)N(CC2CCCC2)CC2N(C(=O)c3ccc(C(F)(F)F)cc3)CCC(=O)N12 (centres unmarked)', 'solubility at 2 h', '> 300 µM');

Could you now consider this next molecule?
Find the recorded solubility at 2 h belonging to CC1C(=O)N(CCc2ccccc2)CC2N(C(=O)c3ccc(OC(F)F)cc3)CCC(=O)N12 (centres unmarked) and report it. > 100 µM
